Assignment: determine reported microsomal CLint at 1 μM for the given molecules.
# Assay Remarks: RLM stability (Low Activity)
# Format: in vitro ADME, Sprague Dawley rats
# Run Conditions: male, Sprague Dawley, rat, liver microsomes, pH 7.4, Condition 1 (Low Activity), 0.50 mg protein/mL
# Protocol: RLM Stability (Low Activity). Pooled RLM from male Sprague Dawley rats (XenoTech R1000) were used. Microsomal incubations were carried out in multi-well plates. […] Six time points over 60 minutes were analyzed, with 60 μL aliquots of the reaction mixture being drawn at each time point. […] Supernatant samples (80 μL) were diluted with water (240 μL) and analyzed for parent compound remaining using a fit-for-purpose liquid chromatography-tandem mass spectrometry (LC-MS/MS) method. […]
Answers are plain numbers, in µL/min/mg.

Here are 3 molecules together with their reported answers.
CCN(CC)[C@@]1(c2ccccc2)CCCCC1=O [Compound 25R] : 90.3
O=C1CCCC[C@@]1(c1ccccc1)N1CCOCC1 [Compound 31S] : 144
O=C1CCCC[C@]1(c1ccccc1)N1CCCC1 [Compound 27R] : 24.8

For each entry beneath this line, provide reported microsomal CLint at 1 μM.
1. CNC1(c2ccc(F)cc2)CCCCC1=O (racemic)
2. CCN(CC)[C@]1(c2ccccc2)CCCCC1=O [Compound 25S]
3. Cc1ccccc1[C@]1(N)CCCCC1=O [Compound 114R, (R)-2-amino-2-(o-tolyl)cyclohexan-1-one]
4. O=C1CCCC[C@@]1(c1ccccc1)N1CCCC1 [Compound 27S]
5. COCCN[C@]1(c2ccccc2)CCCCC1=O [Compound 29S]
6. O=C1CCCC[C@]1(c1ccccc1)N1CCOCC1 [Compound 31R]

19.6
95.4
50.3
25.8
43.6
204

Data provenance is patent US11344510B2.
